Hi there, I'd appreciate the recorded sensor-assay potency score (higher = more potent) for every entry that follows.
target-of-assay: C8B
assay-method-text: pooled miR-30 sensor sort-seq; sequence = guide strand; note: reference of the scale not given here
condition-notes: shRNA
One number for each entry.

# example entries with known answers
Please fill in: sensor-assay potency score (higher = more potent) reported for AACACAGTCTTCGACTTCCTTG = -0.726

# sequence TAATATAGTGTTTGCCTCGATC ; its sensor-assay potency score (higher = more potent) = -0.751

Item: TAAAACCAAAACTGAAACCAGA | sensor-assay potency score (higher = more potent): -0.722

Lab note: measured sensor-assay potency score (higher = more potent) of TTCCTTCTGGAACTCCTCCAGT was -0.414

Kindly note the recorded sensor-assay potency score (higher = more potent) for TATTTTAAAACCAAAACTGAAA , which is -1.26

Provide reported sensor-assay potency score (higher = more potent) for each item, in the same order as listed.
1. TAACTCTCTGAAGGAACTCGTA
2. TTGTTGACTGCATTTGACCCAA
3. TAGGGCTTCCTAAACCTCGTGT
4. TTGACTTCCGCATGGTCTGTTG

-1.02
-0.397
0.733
-0.312

Could you tell me sensor-assay potency score (higher = more potent) for each of these sequences? They are listed below.
1. TAACACAGTCTTCGACTTCCTT
2. TTTTAGTATGAGAGAATCGTTT
3. TTGTCAGAGAAGTTGCACGGTT

[-0.392, -0.743, -0.544]

---

target-of-assay: ACYP2
assay-method-text: pooled miR-30 sensor sort-seq; sequence = guide strand
condition-notes: shRNA
Note to self: values exactly at -0.6 are Met. So sensor-assay potency score (higher = more potent) at or above -0.6 is Met, below is Not met.

As a guide, the following entries are already answered.
Textbook exercise: given the entry TTTGCTGGTATTCTTCACCCAG , state whether its sensor-assay potency score (higher = more potent) is greater than or equal to -0.6.
Not met

Please indicate if the recorded sensor-assay potency score (higher = more potent) for TTGACTTTGTCTTCTGGCCCCT meets or exceeds -0.6.
Met

Hello, I need to know if TGGAATTGACTTTGTCTTCTGG has measured sensor-assay potency score (higher = more potent) not below -0.6. Thanks!
Met

More entries:
Given the entry TTAGTAGCACGTACAGTCGCTT , answer whether its sensor-assay potency score (higher = more potent) meets or surpasses -0.6.
Met

Hello, I need to know if ATCTTCTGTATACATTCTGAAG has measured sensor-assay potency score (higher = more potent) not below -0.6. Thanks!
Not met

I'd appreciate it if you could say whether TTGCTGGTATTCTTCACCCAGC has sensor-assay potency score (higher = more potent) at least equal to -0.6.
Not met

---

target-of-assay: AKT3
assay-method-text: pooled miR-30 sensor sort-seq; sequence = guide strand
condition-notes: shRNA
Param threshold (-0.3) applies to sensor-assay potency score (higher = more potent); output Met when value >= threshold, Not met when value < threshold.

Reported sensor-assay potency score (higher = more potent) at or above -0.3? TAGTCCACTGGAGACATCTGAT
Not met

Decide: sensor-assay potency score (higher = more potent) of TTTAAAAGGAGGTACAAGCTTT >= -0.3?
Not met

Assess whether reported sensor-assay potency score (higher = more potent) for TTGTCTTTCTTTTATGATGGGT sits at -0.3 or higher.
Met

Hi team, for TTATTGTAATAGTCTGAGCTGT , is the recorded sensor-assay potency score (higher = more potent) at or above -0.3?
Not met

Given the entry TAGTCTGAGCTGTAAATTCTTC , answer whether its sensor-assay potency score (higher = more potent) meets or surpasses -0.3.
Not met

I'd appreciate it if you could say whether TATAACAGTAGTCCACTGGAGA has sensor-assay potency score (higher = more potent) at least equal to -0.3.
Not met

Does sensor-assay potency score (higher = more potent) meet or surpass -0.3 for TTGTAGAAAGGTAACCTCCCAC ?
Met

Dear colleague, could you confirm whether TATCTTCTAACACCTCTGGTGC has sensor-assay potency score (higher = more potent) at or above -0.3?
Not met
